The reported numbers originate from patent US11795460B2.

# Avg % Deletion per entry
System: TTR
Assay: TTR editing in primary cyno hepatocytes electroporated with Spy Cas9 protein and sgRNAs (Tables 14, 15)
Assay type: cell-based, cynomolgus monkey
Settings: Table 14; primary cyno hepatocytes electroporated with Spy Cas9 protein (RNP) and sgRNAs
Strand notation (5' to 3'): a small letter for the sugar, then the base; units joined by * are phosphorothioate-linked, units joined directly phosphodiester-linked; [ ] holds rarer units or linkages, { } end groups; capitals alone tell only the bases. m = 2'-O-methyl; r = 2'-OH (RNA)
Respond numerically; units are % and should not be typed.

{"columns": ["molecule", "assay.result"],
 "data": [
  ["G000494: TTR sgRNA modified sequence, Human, SEQ ID No. 101; guide sequence of CR003360 (nucleic acid) guide: mG*mU*mG*rArGrUrCrUrGrGrArGrArGrCrUrGrCrArUrGrUrUrUrUrArGrAmGmCmUmAmGmAmAmAmUmAmGmCrArArGrUrUrArArArArUrArArGrGrCrUrArGrUrCrCrGrUrUrArUrCrAmAmCmUmUmGmAmAmAmAmAmGmUmGmGmCmAmCmCmGmAmGmUmCmGmGmUmGmCmU*mU*mU*mU", 2.07],
  ["G000486: TTR sgRNA modified sequence, Human, SEQ ID No. 93; guide sequence of CR003339 (nucleic acid) guide: mA*mC*mA*rCrArArArUrArCrCrArGrUrCrCrArGrCrArGrUrUrUrUrArGrAmGmCmUmAmGmAmAmAmUmAmGmCrArArGrUrUrArArArArUrArArGrGrCrUrArGrUrCrCrGrUrUrArUrCrAmAmCmUmUmGmAmAmAmAmAmGmUmGmGmCmAmCmCmGmAmGmUmCmGmGmUmGmCmU*mU*mU*mU", 68.07]
]}

Q: Recorded Avg % Deletion for G000485: TTR sgRNA modified sequence, Human, SEQ ID No. 92; guide sequence of CR003336 (nucleic acid) guide: mC*mC*mU*rCrCrUrCrUrGrCrCrUrUrGrCrUrGrGrArCrGrUrUrUrUrArGrAmGmCmUmAmGmAmAmAmUmAmGmCrArArGrUrUrArArArArUrArArGrGrCrUrArGrUrCrCrGrUrUrArUrCrAmAmCmUmUmGmAmAmAmAmAmGmUmGmGmCmAmCmCmGmAmGmUmCmGmGmUmGmCmU*mU*mU*mU , please?
Result: 1.07
